Where these numbers come from: the Deep4Chem optical property database

assay: solvent given as SMILES; details: in C1CCOC1
Each entry below carries its recorded log10(fluorescence lifetime).
Kindly note that the scale is log10 and the underlying fluorescence lifetime is in ns.

Below, 4 molecules whose answers are already recorded.
[[record]]
molecule = "Cc1ccc2nc3c(nc2c1)c(-c1ccccc1)nn3C"
result = 1.37

[[record]]
molecule = "NS(=O)(=O)c1ccc(N2N=C(c3ccc(O)cc3)CC2c2ccc(F)cc2)cc1 (stereo not given)"
result = 0.38

[[record]]
molecule = "CN(C)c1ccc(/C=C2\\CC/C(=C\\c3ccc(C#N)cc3)C2=O)cc1"
result = -0.74

[[record]]
molecule = "Cc1ccc(C2=[N+]3C(=Cc4c(C)cc(C)n4[B-]3(F)F)c3ccccc32)[nH]1"
result = 0.82


# ---- query molecule ----
So for `COc1ccc(-c2nc(C)cc(-c3ccc(-n4c5ccccc5c5ccccc54)cc3)n2)cc1` , the logged log10(fluorescence lifetime) turned out to be 0.58
